Hey, just so you know, these numbers are from patent US20080004282A1.

Biological target: ASIC1a (Homo sapiens)
Sequence (P78348 1-528): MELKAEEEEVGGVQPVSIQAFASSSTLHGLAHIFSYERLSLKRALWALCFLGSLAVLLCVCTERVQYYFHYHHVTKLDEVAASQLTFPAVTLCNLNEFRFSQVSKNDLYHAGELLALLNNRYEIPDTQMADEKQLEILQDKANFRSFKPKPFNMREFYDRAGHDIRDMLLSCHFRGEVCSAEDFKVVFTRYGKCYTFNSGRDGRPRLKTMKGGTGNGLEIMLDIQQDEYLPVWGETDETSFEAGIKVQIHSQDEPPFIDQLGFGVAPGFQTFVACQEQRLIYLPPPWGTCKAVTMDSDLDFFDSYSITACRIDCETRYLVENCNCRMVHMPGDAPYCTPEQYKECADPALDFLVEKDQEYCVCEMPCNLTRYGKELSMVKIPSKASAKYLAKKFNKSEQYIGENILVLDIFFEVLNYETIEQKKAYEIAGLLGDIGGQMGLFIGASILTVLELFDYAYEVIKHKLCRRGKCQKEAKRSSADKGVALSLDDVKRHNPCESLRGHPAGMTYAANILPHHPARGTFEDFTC
Assay: Two-electrode voltage clamp of acid-induced currents in Xenopus laevis oocytes
Type: cell-based
Design: expressed in transfected cells; host or cells: Xenopus laevis oocytes, nuclear microinjection of an expression vector such as pCDNA3
Conditions: 50 μM, Xenopus oocytes; read-out: % inh. at 50 μM (Xo)
Below is a list of entries, each paired with its recorded inhibition at 50 µM value.

CCN1CCc2c(-c3cc(F)ccc3OC)ccc(NC(=O)NC(=O)N3C(=O)CN(c4ccc(-c5cc(F)ccc5OC)c5c4CN(CC)CC5)C3=O)c2C1 [Compound 26] :: > 30%
CCN1CCc2c(-c3cc(C)cc(C)c3)cc(C#N)c(N)c2C1 [Compound 48] :: > 50%
CCN1CCc2c(-c3ccccc3)cc(-c3cnccn3)c(N)c2C1 [Compound 37] :: > 30%
CCN1CCc2c(-c3ccccc3)cc(C#N)c(-n3cccc3)c2C1 [Compound 59] :: > 50%
CCN1CCc2c(cc(N3C(=O)CNC3=O)cc2-c2cc(F)ccc2OC)C1 [Compound 28] :: 20 to 30%

Report inhibition at 50 µM for CCN1CCc2c(-c3ccccc3)cc(C#N)c(NC(=O)CC(=O)OC)c2C1 [Compound 14] please.
20 to 30%

Same thing, different molecule: CCN1CCc2c(-c3ccccc3)ccc(N)c2C1 [Compound 35]
20 to 30%

Same thing, different molecule: CCN1CCc2c(-c3ccccc3)cc(C#N)c([N+](=O)[O-])c2C1 [Compound 51]
20 to 30%

Same thing, different molecule: CCN1CCc2c(-c3ccccc3)cc(-c3ccccn3)c(N)c2C1 [Compound 36]
< 20%
